Data provenance: paper PMC5540273

Give measured %Inh for each item. Keep answers brief.
Tested on: MST3
Construct: gene STK24
Settings: concentration: 1 μM, replicates: in singlicate; n = 1;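 note: KINOMEscan kinase panel screen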
Numbers only, in %.

Consider the worked cases shown below.
> print(dat)
                                   molecule  tested.target  value.observed
1  Fc1cc(Cl)ccc1Nc1ccnc2cc(-c3ccc(CN4CCCCC4)o3)ccc12           MST3              15
2  CSc1nn2c(=O)cc(N3CCOCC3)nc2n1Cc1cccc(C(F)(F)F)c1C           MST3               0
3   O=C(Nc1ccccc1)Nc1cccc(Oc2ccc3nccn3n2)c1           MST3               3
4  CC1=C(C(=O)Nc2cc3cn[nH]c3cc2F)C(c2ccc(C(F)(F)F)cc2)CC(=O)N1 (stereo not drawn)           MST3               0
5  O=C(O)COc1ncnc2cc(-c3ccc4[nH]ncc4c3)sc12           MST3              24

Please go through the list and note %Inh for each molecule.
1. Cc1cccc(-c2nc(Nc3cccc(C(N)=O)c3)c3ccccc3n2)n1
2. COc1cc2ncnc(Nc3ccc4nc(-c5ccccc5)[nH]c4c3)c2cc1OC.Cl
3. Cc1ccc(C(=O)Nc2ccc(Nc3ccnc4cc(-c5ccccn5)ccc34)cc2O)cc1.Cl

Response:
[0, 0, 0]

Query: Item `CC(C)(C)c1ccc(C(=O)Nc2cn3cc(-c4cccnc4)ccc3n2)cc1` with MST3 - %Inh?
Response: 38

###

For each entry below, report its %Inh value.
System: CDK11
Construct: gene CDK19
Conditions: concentration: 1 μM, replicates: in singlicate; n = 1
Numbers only, in %.

Below, 4 compounds whose answers are already recorded.
> print(dat)
                                   compound  units  value.observed
1  Clc1cc(Cl)cc(Nc2ccnc(Nc3cc(Cl)cc(Cl)c3)n2)c1 [GSK175726]      %              19
2  COc1ccccc1-c1ccc2c(NC(=O)C3CC3)n[nH]c2n1 [SB-711239]      %              19
3  Cc1ccc(C(=O)Nc2ccc(Nc3ccnc4cc(-c5ccccn5)ccc34)cc2O)cc1.Cl [GW440146]      %               0
4   CCn1c(-c2cccnc2O)nc2cnccc21 [SB-736715]      %              21

Kindly review the next compound as well.
Query: Please look up its %Inh: Cc1ccccc1-n1cnc2c(N)ncnc21 [SKF-97510]
Response: 0

###

Test system: HUNK
Conditions: concentration: 1 μM, replicates: in singlicate; n = 1
recorded-endpoint: %Inh
Provide the measurement as a number trailed by its unit.

> print(dat)
                                   compound  value.observed
1  CCCc1ccc(S(=O)(=O)NC2CCN(c3ccnc(Nc4ccc(F)cc4)n3)C2)cc1 (stereo not shown)              5%
2  CC1=C(C(=O)Nc2cc3cn[nH]c3cc2F)C(c2ccc(C(F)(F)F)cc2)CC(=O)N1 (stereo not shown)             20%
3  Clc1cc(Cl)cc(Nc2ccnc(Nc3cc(Cl)cc(Cl)c3)n2)c1              0%

API: the following record is the query input.
Query: Item under review: `Cl.NC(=O)c1cccc(Nc2nccc(Nc3ccc(Oc4cccc(Cl)c4)c(Cl)c3)n2)c1` . Reported %Inh?
Response: 0%
